The reported numbers originate from the supplement of paper PMC6897291.

# growth inhibition by drug plus 177Lu-lilotomab satetraxetan annotations
Test system: RIVA
Test: growth inhibition by drug plus 177Lu-lilotomab satetraxetan (1 - RLU/untreated control) (fraction); higher = stronger inhibition
Conditions: 100 nM; time (day): 5; 177Lu-lilotomab satetraxetan 0.5 ug/ml
Where a name gives a salt, the structure may show the parent alone.
Observation type: growth inhibition by drug plus 177Lu-lilotomab satetraxetan

molecule="COc1cc2nccc(Oc3ccc(NC(=O)C4(C(=O)Nc5ccc(F)cc5)CC4)cc3)c2cc1OC [XL-184 free base (Cabozantinib)]" study_system=RIVA result_number=0.529
molecule=Nc1ccn([C@@H]2O[C@H](CO)[C@@H](O)[C@@H]2O)c(=O)n1 study_system=RIVA result_number=0.793
molecule="COc1c(C)c2c(c(O)c1C/C=C(\\C)CCC(=O)O)C(=O)OC2 [Mycophenolic (Mycophenolate)]" study_system=RIVA result_number=0.736
molecule=CS(=O)(=O)N1CCc2c(-c3cnc(N)nc3)nc(N3CCOCC3)nc21 study_system=RIVA result_number=0.439
molecule=Nc1nc2[nH]cc(CCc3ccc(C(=O)N[C@@H](CCC(=O)O)C(=O)O)cc3)c2c(=O)[nH]1 study_system=RIVA result_number=0.436
molecule="CC1(C)CNc2cc(NC(=O)c3cccnc3NCc3ccncc3)ccc21 [Motesanib Diphosphate]" study_system=RIVA result_number=0.536
molecule=CN(C)c1ccccc1CN1CCCN(Cc2ccccc2N(C)C)C1c1ccncc1 study_system=RIVA result_number=0.504
molecule=S=C(NCc1ccc2c(c1)OCO2)N1CCN(c2ncnc3c2oc2ccccc23)CC1 study_system=RIVA result_number=0.661
molecule=CS(=O)(=O)c1cccc(CNc2nc(Nc3ccc4c(c3)CCC(=O)N4)ncc2C(F)(F)F)c1 study_system=RIVA result_number=0.352
molecule="Cn1nnc2c(C(N)=O)ncn2c1=O [Temozolomide]" study_system=RIVA result_number=0.53
molecule=Cn1cnc([N+](=O)[O-])c1Sc1ncnc2[nH]cnc12 study_system=RIVA result_number=0.521
molecule=Cc1ccc(Nc2nccc(N(C)c3ccc4c(C)n(C)nc4c3)n2)cc1S(N)(=O)=O study_system=RIVA result_number=0.488
molecule=CCN(CC)C(=S)SSC(=S)N(CC)CC study_system=RIVA result_number=0.394
molecule=CCN(CC)CCOc1ccc(Nc2ncc3cc(-c4c(Cl)cccc4Cl)c(=O)n(C)c3n2)cc1 study_system=RIVA result_number=0.405
molecule=O=c1cc(N2CCOCC2)oc2c(-c3cccc4c3sc3ccccc34)cccc12 study_system=RIVA result_number=0.523
molecule=CCCCCOC(=O)Nc1nc(=O)n([C@@H]2O[C@H](C)[C@@H](O)[C@H]2O)cc1F study_system=RIVA result_number=0.465
molecule="O=C1CN2Cc3c(ccc(Cl)c3Cl)N=C2N1 [Anagrelide]" study_system=RIVA result_number=0.625
molecule=Cc1csc(-c2nnc(Nc3ccc(Oc4ncccc4-c4ccnc(N)n4)cc3)c3ccccc23)c1 study_system=RIVA result_number=0.581
molecule="CC(C)n1c(/C=C/C(O)CC(O)CC(=O)O)c(-c2ccc(F)cc2)c2ccccc21 (stereo not drawn) [Fluvastatin sodium (Lescol)]" study_system=RIVA result_number=0.53
molecule="CC[C@@]1(O)C(=O)OCc2c1cc1n(c2=O)Cc2cc3c(CN(C)C)c(O)ccc3nc2-1 [Topotecan HCl]" study_system=RIVA result_number=0.91
molecule=NC(=O)Nc1cc(-c2cccc(F)c2)sc1C(=O)N[C@H]1CCCNC1 study_system=RIVA result_number=0.178
molecule="COc1cccc2c1C(=O)c1c(O)c3c(c(O)c1C2=O)C[C@@](O)(C(C)=O)C[C@@H]3O[C@H]1C[C@H](N)[C@H](O)[C@H](C)O1 [Daunorubicin HCl (Daunomycin HCl)]" study_system=RIVA result_number=0.94
molecule="CC(C=CC(=O)NO)=CC(C)C(=O)c1ccc(N(C)C)cc1 (stereo not drawn)" study_system=RIVA result_number=0.783
molecule=C[C@]12CC[C@@H]3c4ccc(O)cc4CC[C@H]3[C@@H]1CCC2=O study_system=RIVA result_number=0.447
molecule="CC(c1cc2ccccc2s1)N(O)C(N)=O (stereo not drawn)" study_system=RIVA result_number=0.496
molecule="COc1cc([C@@H]2c3cc4c(cc3[C@@H](O[C@@H]3O[C@@H]5CO[C@@H](C)O[C@H]5[C@H](O)[C@H]3O)[C@H]3COC(=O)[C@H]23)OCO4)cc(OC)c1O [Etoposide (VP-16)]" study_system=RIVA result_number=0.816
molecule=CN1CCN(c2nc(C3=C(c4c[nH]c5ccccc45)C(=O)NC3=O)c3ccccc3n2)CC1 study_system=RIVA result_number=0.607
molecule=C[C@@H]1CN(CC(=O)Nc2ccc3c(c2)Cc2cccc(-c4cc(=O)cc(N5CCOCC5)o4)c2S3)C[C@H](C)O1 study_system=RIVA result_number=0.37
molecule=CCC[C@H](NC(=O)/C(C#N)=C/c1cccc(Br)n1)c1ccccc1 study_system=RIVA result_number=0.465
molecule=CC(C)(C)c1ccc(S(=O)(=O)/C=C/C#N)cc1 study_system=RIVA result_number=0.508
molecule=COc1ccc(/C=C\c2cc(OC)c(OC)c(OC)c2)cc1O study_system=RIVA result_number=0.963
molecule=CN[C@@H](C)C(=O)N[C@H]1CN(C(=O)CC(C)C)CC[C@H]2CC[C@@H](C(=O)NC(c3ccccc3)c3ccccc3)N2C1=O study_system=RIVA result_number=0.567
molecule=CC[C@H](Nc1ncnc2[nH]cnc12)c1nc2cccc(F)c2c(=O)n1-c1ccccc1 study_system=RIVA result_number=0.554

###

# growth inhibition by drug alone annotations
Test system: U-2932
Assay: growth inhibition by drug alone (1 - RLU/untreated control) (fraction); higher = stronger inhibition
Settings: 1000 nM; time (day): 5; 177Lu-lilotomab satetraxetan 0 ug/ml
Where a name gives a salt, the structure may show the parent alone.
Observation type: growth inhibition by drug alone

molecule="COc1cc2nccc(Oc3ccc(NC(=O)C4(C(=O)Nc5ccc(F)cc5)CC4)cc3)c2cc1OC [XL-184 free base (Cabozantinib)]" study_system=U-2932 result=0.037
molecule="CNC(=O)c1cc(Oc2ccc(NC(=O)Nc3cc(C(C)(C)C)nn3-c3ccc4ncccc4c3)c(F)c2)ccn1 [DCC-2036 (Rebastinib)]" study_system=U-2932 result=0.104
molecule=COc1cc2ncnc(Nc3ccc(F)c(Cl)c3)c2cc1OCCCN1CCOCC1 study_system=U-2932 result=-0.157
molecule=O=C(O)C1(C(=O)O)CCC1.[NH2-].[NH2-].[Pt+2] study_system=U-2932 result=-0.0455
molecule=Cc1ccc(S(=O)(=O)C=CC#N)cc1 study_system=U-2932 result=0.058
molecule="COc1ccccc1OCC(O)CN1CCN(CC(=O)Nc2c(C)cccc2C)CC1 (configuration not stated) [Ranolazine (Ranexa)]" study_system=U-2932 result=-0.0786
molecule=COc1cc(N2CCC(N3CCN(C)CC3)CC2)ccc1Nc1ncc(Cl)c(Nc2ccccc2S(=O)(=O)C(C)C)n1 study_system=U-2932 result=0.328
molecule=FC(F)c1nc2ccccc2n1-c1nc(N2CCOCC2)nc(N2CCOCC2)n1 study_system=U-2932 result=0.349
molecule=O=C(Nc1cccnc1)N1CCC(Cc2cccc(Oc3ccc(C(F)(F)F)cn3)c2)CC1 study_system=U-2932 result=0.833
molecule=Nc1[nH]nc2nnc(-c3c(-c4ccccc4)nn4ccccc34)cc12 study_system=U-2932 result=-0.0414
molecule=CC1(C)CCC(c2ccc(Cl)cc2)=C(CN2CCN(c3ccc(C(=O)NS(=O)(=O)c4ccc(N[C@H](CCN5CCOCC5)CSc5ccccc5)c(S(=O)(=O)C(F)(F)F)c4)cc3)CC2)C1 study_system=U-2932 result=0.85
molecule=Cc1ccc(F)c(NC(=O)Nc2ccc(-c3cccc4[nH]nc(N)c34)cc2)c1 study_system=U-2932 result=0.103
molecule=CN(C)CCOc1ccc(-c2nc(-c3ccncc3)c(-c3ccc4c(c3)CC/C4=N\O)[nH]2)cc1 study_system=U-2932 result=0.0221
molecule=CCCCc1nc2cc(/C=C/C(=O)NO)ccc2n1CCN(CC)CC study_system=U-2932 result=0.959
molecule=O=c1[nH]nc(Sc2ncc([N+](=O)[O-])s2)n1-c1ccc2c(c1)OCCO2 study_system=U-2932 result=-0.0622
molecule="CC(=O)O[C@]1(C(C)=O)CC[C@H]2[C@@H]3C=C(C)C4=CC(=O)CC[C@]4(C)[C@H]3CC[C@@]21C [Megestrol Acetate]" study_system=U-2932 result=0.0515
molecule="O=C(O[C@@H]1Cc2c(O)cc(O)cc2O[C@@H]1c1cc(O)c(O)c(O)c1)c1cc(O)c(O)c(O)c1 [(-)-Epigallocatechin gallate]" study_system=U-2932 result=-0.154
molecule=CS(=O)(=O)N1CCc2c(-c3cnc(N)nc3)nc(N3CCOCC3)nc21 study_system=U-2932 result=0.336
molecule=Cc1csc(-c2nnc(Nc3ccc(Oc4ncccc4-c4ccnc(N)n4)cc3)c3ccccc23)c1 study_system=U-2932 result=0.103
molecule=O=C1C(Cl)=C(NCCN2CCOCC2)C(=O)c2ncccc21 study_system=U-2932 result=0.124
molecule=CC(C)n1nc(-c2ccc3oc(N)nc3c2)c2c(N)ncnc21 study_system=U-2932 result=0.917
molecule=CC#C[C@]1(O)CC[C@H]2[C@@H]3CCC4=CC(=O)CCC4=C3[C@@H](c3ccc(N(C)C)cc3)C[C@@]21C study_system=U-2932 result=-0.0455
molecule="CN1CC[C@H](c2c(O)cc(O)c3c(=O)cc(-c4ccccc4Cl)oc23)[C@H](O)C1 [Flavopiridol hydrochloride]" study_system=U-2932 result=0.974
molecule=Cc1[nH]c(/C=C2\C(=O)Nc3ccc(S(=O)(=O)N(C)c4cccc(Cl)c4)cc32)c(C)c1C(=O)N1CCN(C)CC1 study_system=U-2932 result=-0.0232
molecule=CNC(=O)c1cc(Oc2ccc(NC(=O)Nc3ccc(Cl)c(C(F)(F)F)c3)cc2)ccn1 study_system=U-2932 result=0.16
molecule=CCOC(=O)[C@@H](C)Oc1cccc2c(=O)n(CC(=O)Nc3ccc4c(c3)OCCO4)ccc12 study_system=U-2932 result=-0.0945
molecule=C[C@@H]1C[C@H]2[C@@H]3CCC4=CC(=O)C=C[C@]4(C)[C@@]3(F)[C@@H](O)C[C@]2(C)[C@@]1(O)C(=O)CO study_system=U-2932 result=0.362
molecule=Cc1ccc(-c2cc(C(F)(F)F)nn2-c2ccc(S(N)(=O)=O)cc2)cc1 study_system=U-2932 result=-0.0383
molecule=CC1(COc2ccc3c(c2)ncn3-c2ccc3cccc(N4CCC(N)CC4)c3n2)COC1 study_system=U-2932 result=-0.00181
molecule=CC[C@@H]1C(=O)N(C)c2cnc(Nc3ccc(C(=O)N[C@H]4CC[C@H](N5CCN(CC6CC6)CC5)CC4)cc3OC)nc2N1C(C)C study_system=U-2932 result=0.98
molecule=N#Cc1ccc(NC(=O)Nc2ccccc2Br)c2n[nH]nc12 study_system=U-2932 result=-0.0804
molecule=c1ccc2c(CCNc3ccc(Nc4ccncc4)cc3)c[nH]c2c1 study_system=U-2932 result=0.115
